Recorded EC50 values for a group of molecules are listed next.
- Target Under Test: PPARγ (Homo sapiens, UniProt P37231)
- Sequence (P37231 238-503 limits assumed): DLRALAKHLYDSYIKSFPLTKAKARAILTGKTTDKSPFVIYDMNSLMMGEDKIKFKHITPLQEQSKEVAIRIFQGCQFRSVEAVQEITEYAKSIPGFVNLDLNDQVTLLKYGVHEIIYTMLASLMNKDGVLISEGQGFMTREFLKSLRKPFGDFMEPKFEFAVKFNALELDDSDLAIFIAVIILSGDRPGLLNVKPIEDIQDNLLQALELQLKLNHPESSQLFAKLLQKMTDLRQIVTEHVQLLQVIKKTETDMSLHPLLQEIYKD
- Method Description: Transfection assay, GAL4-PPARγ LBD luciferase reporter in HEK293 cells
- Condition Details: 18-24 hrs

Check out these entries, answers already filled in.
O=C(O)COc1ccc2c(c1)CCN(Cc1ccc(-c3ccc(Cl)cc3)o1)CC2 :: > 3 µM
O=C(O)C1(Oc2ccc3c(c2)CCN(Cc2ccc(-c4ccc(C(F)(F)F)cc4)o2)CC3)CC1 :: > 1 µM
CC(c1ccc(-c2ccc(C(F)(F)F)cc2)o1)N1CCc2ccc(OCC(=O)O)cc2CC1 (single isomer, unassigned) [28a] :: > 3 µM
O=C(O)C1(Oc2ccc3c(c2)CCN(Cc2ccc(-c4ccc(C(F)(F)F)cc4)s2)CC3)CC1 :: > 3 µM
O=C(O)COc1ccc2c(c1)CCN(Cc1csc(-c3ccc(C(F)(F)F)cc3)n1)CC2 :: > 3 µM
CC(c1ccc(-c2ccc(C(F)(F)F)cc2)s1)N1CCc2ccc(OCC(=O)O)cc2CC1 (single isomer, unassigned) [27a] :: > 1 µM

// query EC50 value for entry O=C(O)COc1ccc2c(c1)CCN(Cc1ccc(-c3ccc(OC(F)(F)F)cc3)o1)CC2
> 3 µM

Cited source: patent US8633184B2
